Molecular target: T1, rat nerve growth factor (beta-NGF) (rat, UniProt P25427 122-241)
T1 construct: mature; also called rat NGF; recombinant rat β-NGF
T1 sequence (P25427 122-241): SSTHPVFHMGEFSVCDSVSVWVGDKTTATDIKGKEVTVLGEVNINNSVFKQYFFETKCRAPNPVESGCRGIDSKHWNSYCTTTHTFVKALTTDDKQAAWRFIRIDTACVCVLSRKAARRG
Assay: purified scFv, inhibition of rat NGF binding to TrkA fusion protein
The binders listed here are annotated with their pIC50.
Remember, pIC50 is on a log scale: it is -log10 of the molar concentration.

Identify pIC50 associated with the binder 1165D4 scFv (scFv, V domains shown, also called LOT1165D04) VH: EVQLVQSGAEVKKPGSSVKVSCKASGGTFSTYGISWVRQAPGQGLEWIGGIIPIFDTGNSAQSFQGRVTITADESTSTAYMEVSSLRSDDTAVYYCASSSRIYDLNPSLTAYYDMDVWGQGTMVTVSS VL: QAVLTQPSSVSTPPGQKVTISCSGSSSNIENNYVSWYQQLPGTAPKLLIYDNNKRPSGIPDRFSGSKSGTSATLGITGLQTGDEADYYCGTWDSSLSAWVFGGGTKLTVL
9.54

Tell us which pIC50 value is on record for 1131H2 scFv (scFv, V domains shown, also called LOT1131H02) VH: EVQLVQSGAEVKKPGSTVKVSCKASGGTFSTYGISWVRQAPGQGLEWIGGIIPIFDTGNSAQSFQGRVTITADESTSTAYMEVSSLRSDDTAVYYCASSSRIYDLNPSLTAYYDMDVWGQGTMVTVSS VL: QAVLTQPSSVSTPPGQKVTISCSGTSSNIGNNYVSWYQQLPGTAPKLLIYDNNKRPSGIPDRFSGSKSGTSATLGITGLQTGDEADYYCGTWDSSLSAWVFGGGTKLTVL
10.05

Provide measured pIC50 value, entry: 1150F1 scFv (scFv, V domains shown, also called LOT1150F01) VH: EVQLVQSGAEVKKPGSSVKVSCKASGGTFSTYGISWVRQAPGQGLEWIGGIIPIFDTGNSAQSFQDRVTITADESTSTAYMEVGSLRSDDTAVYYCASSSRIYDLNPSLTAYYDMDVWGHGTMVTVSS VL: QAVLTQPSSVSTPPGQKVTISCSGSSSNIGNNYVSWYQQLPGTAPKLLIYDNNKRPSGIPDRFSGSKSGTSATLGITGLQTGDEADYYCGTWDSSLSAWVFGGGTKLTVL
9.80

Specify pIC50 for 1147D2 scFv (scFv, V domains shown, also called LOT1147D02) VH: EVQLVQSGAEVKKPGSSVRISCKASGGTFSTYGVSWVRQAPGQGLEWIGGIIPIFDTGNSAQSFQGRVTITADESTSTAYMEVSSLRSDDTAVYYCASSSRIYDLNPSLTAYYDMDVWGQGTMVTVSS VL: QAVLTQPSSVSTPPGQKVTISCSGSSSNIGNNYVSWYQQLPGTAPKLLIYDNNKRPSGVPDRFSGSKSGTSATLGITGLQTGDEADYYCGTWDSSLSAWVFGGGTKLTVL and stop.
10.00
